Values compiled from ChEMBL document CHEMBL5154934.

Experiment: Inhibition of MERS-CoV 3C-like protease incubated for 30 mins by FRET enzyme assay
Parameters: species or system Middle East respiratory syndrome-related coronavirus
Entries annotated with measured IC50
Record the result as a number with its unit.

CC(C)C[C@H](NC(=O)OC1CC2(C1)CN(C(=O)C(C)C)C2)C(=O)N[C@H](C=O)C[C@H]1CCNC1=O = 350 nM
CC(C)C[C@H](NC(=O)OC1CC2(CCN(C(=O)OC(C)(C)C)C2)C1)C(=O)N[C@H](C=O)C[C@H]1CCNC1=O (stereo not given in full) = 700 nM
CC(C)C[C@H](NC(=O)OC1CC2(CCN(C(=O)C(C)C)CC2)C1)C(=O)N[C@H](C=O)C[C@H]1CCNC1=O = 650 nM
CC(C)C[C@H](NC(=O)OCC1CN(C(=O)C2CC3CCC2C3)C1)C(=O)N[C@H](C=O)C[C@H]1CCNC1=O (stereo not given in full) = 190 nM
CC(C)C[C@H](NC(=O)OC1CCC2(C1)CN(C(=O)OC(C)(C)C)C2)C(=O)N[C@H](C=O)C[C@H]1CCNC1=O (stereo not given in full) = 1010 nM
CC(C)C[C@H](NC(=O)OC1CC2(CCN(C#N)CC2)C1)C(=O)N[C@H](C=O)C[C@H]1CCNC1=O = 560 nM
CC(C)C[C@H](NC(=O)OC1CC2(C1)CN(S(C)(=O)=O)C2)C(=O)N[C@H](C=O)C[C@H]1CCNC1=O = 220 nM
CC(C)C[C@H](NC(=O)OCC1CN(C(=O)Cc2ccccc2)C1)C(=O)N[C@H](C=O)C[C@H]1CCNC1=O = 280 nM
CC(C)C[C@H](NC(=O)OC1(C)CN(C(=O)OC(C)(C)C)C1)C(=O)N[C@H](C=O)C[C@H]1CCNC1=O = 3450 nM
[2H]C([2H])(OC(=O)N[C@@H](CC(C)C)C(=O)N[C@H](C=O)C[C@H]1CCNC1=O)C1CN(C(=O)OC(C)(C)C)C1 = 350 nM

# query: IC50 of entry `CC(C)C[C@H](NC(=O)OC1CC2(CCN(C(=O)Cc3ccccc3)CC2)C1)C(=O)N[C@H](C=O)C[C@H]1CCNC1=O` 700 nM

Which value of IC50 has been reported for `CC(C)C[C@H](NC(=O)OC1CC2(C1)CN(C(=O)OC(C)(C)C)C2)C(=O)N[C@H](C=O)C[C@H]1CCNC1=O` in the records? 1500 nM

State the recorded IC50 for this entry: `CC(C)C[C@H](NC(=O)OC1CC2(CCN(S(C)(=O)=O)CC2)C1)C(=O)N[C@H](C=O)C[C@H]1CCNC1=O` 370 nM

I am curious: what IC50 value has been reported for `CC(C)C[C@H](NC(=O)OCC1CN(C(=O)OC(C)(C)C)C1)C(=O)N[C@H](C=O)C[C@H]1CCNC1=O` ? 490 nM

# input compound: `CC(C)C[C@H](NC(=O)OC1CC2(CCN(C(=O)OC(C)(C)C)CC2)C1)C(=O)N[C@H](C=O)C[C@H]1CCNC1=O` ; wanted: its IC50 1200 nM

---

Listed here are compounds together with their documented IC50.
Assay: Inhibition of MERS-CoV 3C-like protease incubated for 30 mins by FRET enzyme assay
Design: species or system Middle East respiratory syndrome-related coronavirus
The figure you give is taken to be in µM; do not add the unit.

Example entries and their recorded answers appear below.
CC(C)C[C@H](NC(=O)OC1CN(C(=O)OC(C)(C)C)C1)C(=O)N[C@H](C=O)C[C@H]1CCNC1=O = 1.65
CC(C)C[C@H](NC(=O)OCC1CN(S(C)(=O)=O)C1)C(=O)N[C@H](C=O)C[C@H]1CCNC1=O = 1.4

From here, focus on the item given below.
Would you kindly share the measured IC50 for `CC(C)C[C@H](NC(=O)OC1CC2(C1)CN(C(=O)Cc1ccccc1)C2)C(=O)N[C@H](C=O)C[C@H]1CCNC1=O` ? 0.21
